Data credit: ChEMBL document CHEMBL4513216

experiment: Toxicity liver stage against HepG2, at 10uM; assay type: cell-based; parameters: test concentration 10 uM, cell line HepG2-A16-CD81EGFP; conditions: human, HepG2-A16-CD81EGFP cells; read-out: INHIBITION
So I've got a bunch of molecules here, and I need their cytotoxicity at 10 µM values.
Answers are plain numbers, in %.

# molecule, reportedMetric, measuredNumber
measured = [
    ("CCNC(=O)NC(=O)CNC(C)(CC)c1nc(C)cs1 (stereo not given)", "cytotoxicity at 10 µM", 6.99),
    ("CN(C)c1cc(C(=O)N2CCCN(c3cccnn3)CC2)ccn1", "cytotoxicity at 10 µM", -8.19),
    ("O=C(COc1ccc(-n2cccn2)nn1)N1CCCC1", "cytotoxicity at 10 µM", 1.43),
]

Record cytotoxicity at 10 µM per entry; entries follow.
1. Cc1nc(N2CCOCC2)nc2c1CCN(Cc1ccsc1)CC2
2. CC(NC(=O)NCc1cccc(N2CCCC2=O)c1)c1ccccc1 (stereo not given)
3. CC(=O)N1CCCC(c2ccccn2)C1 (stereo not given)
4. CC(C)(C)C(=O)CN1CCc2ccccc2NCCC1=O
5. O=C1C[C@H]2[C@@H](CCN2Cc2ccccn2)N1CCN1CCOCC1
6. COCCN1CCOCC12CCN(C(=O)c1cccnc1)CC2
7. CN1CC2(CCN(C(=O)c3cccnc3)CC2)c2cccc(F)c21

Response given:
-130
4.52
-23.7
-104
-1.45
-73.1
6.17
